Origin of values: patent US8058295B2

measured target: CFTR (Mus musculus)
Construct: from tissue; host or cells: mouse ileum (wildtype CD1 mice)
Sequence (P26361 whole entry): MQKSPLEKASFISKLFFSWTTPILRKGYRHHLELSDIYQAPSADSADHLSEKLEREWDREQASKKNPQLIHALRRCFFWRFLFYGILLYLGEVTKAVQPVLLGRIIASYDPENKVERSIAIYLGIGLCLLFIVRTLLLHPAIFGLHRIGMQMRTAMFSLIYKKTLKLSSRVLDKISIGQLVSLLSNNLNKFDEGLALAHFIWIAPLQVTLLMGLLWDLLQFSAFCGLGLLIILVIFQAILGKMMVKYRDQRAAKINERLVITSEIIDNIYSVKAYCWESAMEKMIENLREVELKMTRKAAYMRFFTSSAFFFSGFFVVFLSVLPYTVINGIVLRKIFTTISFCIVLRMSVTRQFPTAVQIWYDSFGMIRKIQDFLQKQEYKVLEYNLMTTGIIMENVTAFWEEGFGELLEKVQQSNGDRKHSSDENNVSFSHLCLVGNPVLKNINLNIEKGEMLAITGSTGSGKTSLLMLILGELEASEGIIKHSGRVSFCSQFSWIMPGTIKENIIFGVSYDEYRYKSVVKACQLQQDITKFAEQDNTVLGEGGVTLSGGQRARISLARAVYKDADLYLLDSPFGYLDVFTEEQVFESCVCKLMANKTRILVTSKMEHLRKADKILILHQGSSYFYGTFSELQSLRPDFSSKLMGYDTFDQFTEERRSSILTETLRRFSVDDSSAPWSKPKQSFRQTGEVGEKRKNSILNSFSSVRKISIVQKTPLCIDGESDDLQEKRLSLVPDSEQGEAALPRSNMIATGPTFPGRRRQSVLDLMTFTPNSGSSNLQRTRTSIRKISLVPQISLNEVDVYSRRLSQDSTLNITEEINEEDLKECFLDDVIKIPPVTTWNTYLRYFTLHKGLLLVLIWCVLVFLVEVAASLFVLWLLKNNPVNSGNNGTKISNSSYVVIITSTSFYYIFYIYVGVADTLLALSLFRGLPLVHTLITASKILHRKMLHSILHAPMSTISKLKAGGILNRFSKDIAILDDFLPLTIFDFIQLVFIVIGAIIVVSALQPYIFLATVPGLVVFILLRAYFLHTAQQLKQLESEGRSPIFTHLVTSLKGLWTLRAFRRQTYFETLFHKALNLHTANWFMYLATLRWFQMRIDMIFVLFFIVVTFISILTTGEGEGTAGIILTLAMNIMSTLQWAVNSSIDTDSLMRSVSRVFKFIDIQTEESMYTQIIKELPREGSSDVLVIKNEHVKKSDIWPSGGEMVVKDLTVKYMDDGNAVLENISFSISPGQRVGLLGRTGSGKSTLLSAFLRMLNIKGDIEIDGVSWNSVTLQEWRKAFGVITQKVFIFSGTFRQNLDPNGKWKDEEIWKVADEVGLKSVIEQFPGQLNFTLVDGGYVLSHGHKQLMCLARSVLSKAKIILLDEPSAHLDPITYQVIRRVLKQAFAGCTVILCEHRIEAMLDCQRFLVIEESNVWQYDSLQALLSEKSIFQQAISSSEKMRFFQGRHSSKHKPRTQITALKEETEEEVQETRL
assay remarks: Short-circuit current in mouse ileum
condition set: intact intestine; read-out: apparent potency for inhibition of intestinal short-circuit current
pIC50: −log10 of the molar value.
attribute measured: pIC50

Q: Consider the compound O=C(O)c1ccc(/C=C2\SC(=S)N(c3cccc(C(F)(F)F)c3)C2=O)cc1 [CFTRinh-172] . State its measured pIC50.
Result: 5.30 to 5.70

====

measured target: CFTR (Homo sapiens, UniProt P13569)
Sequence (P13569 whole entry): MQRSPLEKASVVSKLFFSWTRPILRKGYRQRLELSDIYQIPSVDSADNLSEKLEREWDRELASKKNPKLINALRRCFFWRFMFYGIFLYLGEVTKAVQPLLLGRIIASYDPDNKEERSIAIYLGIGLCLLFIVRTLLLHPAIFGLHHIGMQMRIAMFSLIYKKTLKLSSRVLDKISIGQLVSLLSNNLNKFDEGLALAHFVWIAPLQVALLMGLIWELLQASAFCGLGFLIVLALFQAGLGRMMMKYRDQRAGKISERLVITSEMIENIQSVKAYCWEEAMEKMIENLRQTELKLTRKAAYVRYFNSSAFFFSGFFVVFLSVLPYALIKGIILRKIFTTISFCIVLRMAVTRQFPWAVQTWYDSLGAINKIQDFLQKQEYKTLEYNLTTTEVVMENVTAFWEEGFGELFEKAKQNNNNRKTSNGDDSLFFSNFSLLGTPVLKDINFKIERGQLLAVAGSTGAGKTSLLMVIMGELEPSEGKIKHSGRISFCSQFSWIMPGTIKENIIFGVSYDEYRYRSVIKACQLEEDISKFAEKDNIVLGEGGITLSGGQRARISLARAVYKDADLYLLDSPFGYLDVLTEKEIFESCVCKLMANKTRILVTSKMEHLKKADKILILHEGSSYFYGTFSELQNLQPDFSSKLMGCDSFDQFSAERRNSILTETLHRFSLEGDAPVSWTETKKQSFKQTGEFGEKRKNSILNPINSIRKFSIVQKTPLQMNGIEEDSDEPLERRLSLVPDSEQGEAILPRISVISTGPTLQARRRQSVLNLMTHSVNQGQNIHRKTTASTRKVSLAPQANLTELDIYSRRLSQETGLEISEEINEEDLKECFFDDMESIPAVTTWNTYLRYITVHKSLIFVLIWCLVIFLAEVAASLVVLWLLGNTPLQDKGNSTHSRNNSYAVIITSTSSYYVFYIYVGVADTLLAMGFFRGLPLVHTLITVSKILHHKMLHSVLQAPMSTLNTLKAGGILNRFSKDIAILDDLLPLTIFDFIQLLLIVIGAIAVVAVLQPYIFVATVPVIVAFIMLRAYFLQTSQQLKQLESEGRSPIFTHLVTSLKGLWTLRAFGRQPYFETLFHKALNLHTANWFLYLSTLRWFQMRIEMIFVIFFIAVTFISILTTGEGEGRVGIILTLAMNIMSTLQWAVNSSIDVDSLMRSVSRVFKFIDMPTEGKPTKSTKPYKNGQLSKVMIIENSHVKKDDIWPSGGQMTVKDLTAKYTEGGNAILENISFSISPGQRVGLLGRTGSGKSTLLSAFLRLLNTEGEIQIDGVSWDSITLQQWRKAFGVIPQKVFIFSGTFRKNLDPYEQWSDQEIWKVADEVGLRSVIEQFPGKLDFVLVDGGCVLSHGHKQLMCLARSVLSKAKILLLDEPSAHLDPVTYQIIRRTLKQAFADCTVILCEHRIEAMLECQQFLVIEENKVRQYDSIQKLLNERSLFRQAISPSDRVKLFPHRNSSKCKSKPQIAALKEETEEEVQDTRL
pIC50: −log10 of the molar value.
attribute measured: pIC50

Q: Consider the compound O=C(O)c1ccc(/C=C2\SC(=S)N(c3cccc(C(F)(F)F)c3)C2=O)cc1 . State its measured pIC50.
Result: 6.30 to 6.70
